# test.details: Carbodiimide (EDC)-mediated conjugation of goat anti-rabbit IgG to carboxylated gold nanoparticles in presence of additive, read by lateral flow assay
# conditions: additive 50 mM final, MES pH 5.0, EDC; lateral flow test line signal
So I've got a bunch of compounds here, and I need their % of Signal values.
Answer by giving the amount and then stating its unit.

Q. Answer with reported % of Signal of CN(C)CC(=O)O
A. 110%

Q. Answer with reported % of Signal of O=C(O)C1CCCCC1
A. 71%

Q. Answer with reported % of Signal of O=C(O)c1ccccn1
A. 100%

Q. Answer with reported % of Signal of NCCCC(=O)O
A. 26%
